observed_property: Ki (nM)
Number in nM, nothing else.

**Q:** For AChE (Electrophorus electricus), give Ki of the listed molecule: "O=C1c2cc(NS(=O)(=O)c3ccccc3F)ccc2-n2c1nc1ccccc1c2=O"
**A:** 83.1

---

test system: PC12 cells; assay: Cytotoxicity in PC12 cells (MTT); assay type: cell-based; conditions: compound 30 μM
observed_property: Cell Viability (% of Control)

**Q:** // fetch Cell Viability (% of Control); item: O=C1c2ccccc2-n2c1nc1ccc(NS(=O)(=O)c3cccc(F)c3)cc1c2=O [8g] ; system: PC12 cells
**A:** 99.6 ± 1.2 % of Control

**Q:** Specify Cell Viability (% of Control) for O=c1c(O)c(-c2ccc(O)c(O)c2)oc2cc(O)cc(O)c12 [Quercetin, reference compound] , system PC12 cells.
**A:** 99.6 ± 1.1 % of Control

**Q:** State Cell Viability (% of Control) on PC12 cells. Entry: O=C1c2cc(NS(=O)(=O)c3ccc(F)cc3)ccc2-n2c1nc1ccccc1c2=O [4f]
**A:** 99.4 ± 1.6 % of Control

**Q:** Return reported Cell Viability (% of Control) for target or system PC12 cells, item CC(C)(C)c1ccc(S(=O)(=O)Nc2ccc3nc4n(c(=O)c3c2)-c2ccccc2C4=O)cc1 [8c] .
**A:** 98.4 ± 1.9 % of Control

**Q:** State recorded Cell Viability (% of Control) with PC12 cells, entry COc1ccc(S(=O)(=O)Nc2ccc3nc4n(c(=O)c3c2)-c2ccccc2C4=O)cc1 [8j] , no comment.
**A:** 99.9 ± 1.5 % of Control

**Q:** Please tell me the measured Cell Viability (% of Control) for COc1ccc(S(=O)(=O)Nc2ccc3c(c2)C(=O)c2nc4ccccc4c(=O)n2-3)c(OC)c1 [4l] ; system: PC12 cells.
**A:** 100.2 ± 3.1 % of Control

---

system: P-gp (MDR1); assay: in vitro; type: in vitro ADME; settings: dog, MDCK-MDR1; efflux ratio, MDCKII-MDR1; read-out: ER Papp BL/Papp AP
observed_property: efflux ratio at 2 h, 75 μM

**Q:** Check the records and state efflux ratio at 2 h, 75 μM for "O=C1c2cc(NS(=O)(=O)c3ccccc3F)ccc2-n2c1nc1ccccc1c2=O"
**A:** 0.96

---

Molecular target: AChE (from electric eel) (Electrophorus electricus, UniProt O42275)
Construct: AChE (from electric eel); purchased Sigma Chemical Company (St. Louis, MO, USA)
Sequence (O42275 24-633): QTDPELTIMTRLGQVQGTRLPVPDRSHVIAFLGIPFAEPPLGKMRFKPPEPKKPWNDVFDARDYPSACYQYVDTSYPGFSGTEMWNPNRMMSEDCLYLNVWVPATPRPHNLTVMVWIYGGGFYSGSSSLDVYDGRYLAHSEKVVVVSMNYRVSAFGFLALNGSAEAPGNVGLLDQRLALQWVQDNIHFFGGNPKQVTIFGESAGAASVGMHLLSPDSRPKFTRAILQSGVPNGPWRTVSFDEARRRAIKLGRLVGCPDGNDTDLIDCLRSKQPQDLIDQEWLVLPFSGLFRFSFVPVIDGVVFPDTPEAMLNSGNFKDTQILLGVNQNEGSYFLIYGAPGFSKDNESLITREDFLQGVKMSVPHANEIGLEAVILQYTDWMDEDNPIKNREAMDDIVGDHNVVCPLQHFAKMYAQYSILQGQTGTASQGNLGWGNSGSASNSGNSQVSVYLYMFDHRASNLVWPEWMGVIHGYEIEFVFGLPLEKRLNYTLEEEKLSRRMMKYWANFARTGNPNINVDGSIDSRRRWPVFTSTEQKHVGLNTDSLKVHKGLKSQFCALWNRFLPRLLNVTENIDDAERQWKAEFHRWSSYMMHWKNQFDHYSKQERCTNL
Test: biochemical
Conditions: AChE selectivity index
Description: The ChE inhibitory activity of the test compounds was determined using the modified Ellman’s method. The compounds were dissolved in DMSO (10 mmol/L) and then diluted with PB (phosphate buffer) solution to attain a range of final concentrations. […] Briefly, 100 μL of different concentrations of the test or standard compounds and 100 μL of AChE/BuChE (0.5 U/mL) were added into 48-well plates and then co-incubated at 37 °C for 30 min. […] All concentrations mentioned are final.
Could you mark each record y if its Selective Index, IC50 (BChE)/IC50 (AChE) falls strictly under 4, and n if it equals or exceeds it?

**Q:** I wonder whether O=C1c2cc(NS(=O)(=O)c3ccccc3C(F)(F)F)ccc2-n2c1nc1ccccc1c2=O [4o] has Selective Index, IC50 (BChE)/IC50 (AChE) below 4. Can you tell?
**A:** y

**Q:** A record lists Cc1ccc(S(=O)(=O)Nc2ccc3c(c2)C(=O)c2nc4ccccc4c(=O)n2-3)cc1 [4b] . Is its Selective Index, IC50 (BChE)/IC50 (AChE) below 4?
**A:** y

**Q:** Is 4 strictly greater than the compound's reported Selective Index, IC50 (BChE)/IC50 (AChE)? compound: O=C1c2cc(NS(=O)(=O)c3ccccc3)ccc2-n2c1nc1ccccc1c2=O [4a]
**A:** n

**Q:** Hi there! Is Selective Index, IC50 (BChE)/IC50 (AChE) for CC(C)(C)c1ccc(S(=O)(=O)Nc2ccc3c(c2)C(=O)c2nc4ccccc4c(=O)n2-3)cc1 [4c] below 4, do you know?
**A:** y

**Q:** Strictly below 4: is that where Selective Index, IC50 (BChE)/IC50 (AChE) of O=C1c2cc(NS(=O)(=O)c3ccc(F)cc3)ccc2-n2c1nc1ccccc1c2=O [4f] sits?
**A:** n

**Q:** Quick check: Selective Index, IC50 (BChE)/IC50 (AChE) of O=C1c2cc(NS(=O)(=O)c3cccc(F)c3)ccc2-n2c1nc1ccccc1c2=O [4g] under 4?
**A:** n

**Q:** State whether 4 exceeds Selective Index, IC50 (BChE)/IC50 (AChE) recorded for O=C1c2cc(NS(=O)(=O)c3ccccc3F)ccc2-n2c1nc1ccccc1c2=O [4h] .
**A:** n

---

test system: PC12 cells; test: Cytotoxicity in PC12 cells (MTT); format: cell-based; details: compound 30 μM
observed_property: Cell Viability (% of Control)

**Q:** Report Cell Viability (% of Control) on PC12 cells for this entry: "CC(C)c1cc(C(C)C)c(S(=O)(=O)Nc2ccc3c(c2)C(=O)c2nc4ccccc4c(=O)n2-3)c(C(C)C)c1"
**A:** 99.4 ± 2.4 % of Control

**Q:** Output reported Cell Viability (% of Control) of the compound "COc1ccc(S(=O)(=O)Nc2ccc3nc4n(c(=O)c3c2)-c2ccccc2C4=O)cc1OC" on PC12 cells.
**A:** 99.6 ± 1.2 % of Control

**Q:** # lookup: PC12 cells Cell Viability (% of Control), key = "CC(=O)Nc1ccc(S(=O)(=O)Nc2ccc3c(c2)C(=O)c2nc4ccccc4c(=O)n2-3)cc1"
**A:** 99.6 ± 1.7 % of Control

**Q:** Write Cell Viability (% of Control) of "CC(=O)Nc1ccc(S(=O)(=O)Nc2ccc3nc4n(c(=O)c3c2)-c2ccccc2C4=O)cc1" ; system used: PC12 cells
**A:** 99.8 ± 1.2 % of Control

**Q:** Look up and report Cell Viability (% of Control), with PC12 cells as system, for "COc1ccc(S(=O)(=O)Nc2ccc3c(c2)C(=O)c2nc4ccccc4c(=O)n2-3)cc1OC"
**A:** 98.8 ± 1.9 % of Control

**Q:** Provide measured Cell Viability (% of Control) on PC12 cells for "CC(C)(C)c1ccc(S(=O)(=O)Nc2ccc3c(c2)C(=O)c2nc4ccccc4c(=O)n2-3)cc1" please.
**A:** 99.5 ± 3.1 % of Control

**Q:** Provide PC12 cells Cell Viability (% of Control) reading for "COc1ccc(S(=O)(=O)Nc2ccc3c(c2)C(=O)c2nc4ccccc4c(=O)n2-3)cc1" .
**A:** 99.7 ± 1.6 % of Control

**Q:** Recall the reported Cell Viability (% of Control) of "O=C1c2ccccc2-n2c1nc1ccc(NS(=O)(=O)c3ccc(F)cc3)cc1c2=O" when tested on PC12 cells.
**A:** 99.4 ± 1.7 % of Control
